System: Streptococcus pyogenes
test description: Subcutaneously administration into mice infected with Streptococcus pyogenes C 203
Type: functional
measurement context: sc
property label: ED50 (mg/kg)
// units = mg/kg; emit number, no label

For orientation, consider the following solved cases.
test smiles	ED50 [mg/kg]
CC(=O)N[C@@H]1[C@H](O[C@@H]2c3ccc(c(Cl)c3)Oc3cc4cc(c3O)Oc3ccc(cc3Cl)C[C@H]3NC(=O)[C@H](N)c5ccc(O)c(c5)Oc5cc(O)cc(c5)[C@H](NC3=O)C(=O)N[C@H]4C(=O)N[C@H]3C(=O)N[C@@H]2C(=O)N[C@H](C(=O)O)c2cc(O)cc(O[C@H]4O[C@H](CO)[C@@H](O)[C@@H](O)[C@@H]4O)c2-c2cc3ccc2O)O[C@@H](CO)[C@@H](O)[C@@H]1O	2.64
CNCCCN(C)C(=O)[C@H]1NC(=O)[C@H]2NC(=O)[C@H](NC(=O)[C@@H]3NC(=O)[C@H]4NC(=O)[C@@H](Cc5ccc(c(Cl)c5)Oc5cc3cc(c5O[C@@H]3O[C@@H](CO)[C@@H](O)[C@H](O)[C@@H]3NC(=O)CCCCCCC(C)C)Oc3ccc(cc3Cl)[C@H]2O[C@@H]2O[C@@H](CO)[C@@H](O)[C@H](O)[C@@H]2NC(C)=O)NC(=O)[C@H](N)c2ccc(O)c(c2)Oc2cc(O)cc4c2)c2ccc(O)c(c2)-c2c(O[C@H]3O[C@H](CO)[C@@H](O)[C@@H](O)[C@@H]3O)cc(O)cc21	0.13
N[C@H]1C(=O)N[C@@H]2Cc3ccc(c(Cl)c3)Oc3cc4cc(c3O)Oc3ccc(cc3Cl)[C@@H](O)[C@@H]3NC(=O)[C@H](NC(=O)[C@@H]4NC(=O)[C@@H](NC2=O)c2cc(O)cc(c2)Oc2cc1ccc2O)c1ccc(O)c(c1)-c1c(O)cc(O)cc1[C@@H](C(=O)O)NC3=O	0.95
COC(=O)CNC(=O)[C@H]1NC(=O)[C@H]2NC(=O)[C@H](NC(=O)[C@@H]3NC(=O)[C@H]4NC(=O)[C@@H](Cc5ccc(c(Cl)c5)Oc5cc3cc(c5O)Oc3ccc(cc3Cl)[C@H]2O[C@@H]2O[C@@H](CO)[C@@H](O)[C@H](O)[C@@H]2NC(C)=O)NC(=O)[C@H](N)c2ccc(O)c(c2)Oc2cc(O)cc4c2)c2ccc(O)c(c2)-c2c(O)cc(O)cc21	7

Attention now turns to another entry.
Lab note: measured ED50 of CN(C)CCCCCCCNC(=O)[C@H]1NC(=O)[C@H]2NC(=O)[C@H](NC(=O)[C@@H]3NC(=O)[C@H]4NC(=O)[C@@H](Cc5ccc(c(Cl)c5)Oc5cc3cc(c5O)Oc3ccc(cc3Cl)[C@H]2O)NC(=O)[C@H](N)c2ccc(O)c(c2)Oc2cc(O)cc4c2)c2ccc(O)c(c2)-c2c(O)cc(O)cc21 was 0.95

---

System: Enterococcus faecalis
test description: In vitro minimum inhibitory concentration against Streptococcus faecalis ATCC 7080
Assay type: functional
Recorded measurements of MIC, one per entry
// units = µg/mL; emit number, no label

test smiles	endpoint result
CC(=O)N[C@@H]1[C@H](O[C@@H]2c3ccc(c(Cl)c3)Oc3cc4cc(c3O[C@@H]3O[C@@H](CO)[C@@H](O)[C@H](O)[C@@H]3NC(=O)CCCCCCC(C)C)Oc3ccc(cc3Cl)C[C@H]3NC(=O)[C@H](N)c5ccc(O)c(c5)Oc5cc(O)cc(c5)[C@H](NC3=O)C(=O)N[C@H]4C(=O)N[C@H]3C(=O)N[C@@H]2C(=O)N[C@H](C(=O)N2CCSCC2)c2cc(O)cc(O[C@H]4O[C@H](CO)[C@@H](O)[C@@H](O)[C@@H]4O)c2-c2cc3ccc2O)O[C@@H](CO)[C@@H](O)[C@@H]1O	0.12
CC(=O)N[C@@H]1[C@H](O[C@@H]2c3ccc(c(Cl)c3)Oc3cc4cc(c3O[C@@H]3O[C@@H](CO)[C@@H](O)[C@H](O)[C@@H]3NC(=O)CCCCCCC(C)C)Oc3ccc(cc3Cl)C[C@H]3NC(=O)[C@H](N)c5ccc(O)c(c5)Oc5cc(O)cc(c5)[C@H](NC3=O)C(=O)N[C@H]4C(=O)N[C@H]3C(=O)N[C@@H]2C(=O)N[C@H](C(=O)NCCN(C)C)c2cc(O)cc(O[C@H]4O[C@H](CO)[C@@H](O)[C@@H](O)[C@@H]4O)c2-c2cc3ccc2O)O[C@@H](CO)[C@@H](O)[C@@H]1O	0.12

Attention now turns to another entry.
Lab note: measured MIC of CN(C)CCN(C)C(=O)[C@H]1NC(=O)[C@H]2NC(=O)[C@H](NC(=O)[C@@H]3NC(=O)[C@H]4NC(=O)[C@@H](Cc5ccc(c(Cl)c5)Oc5cc3cc(c5O)Oc3ccc(cc3Cl)[C@H]2O)NC(=O)[C@H](N)c2ccc(O)c(c2)Oc2cc(O)cc4c2)c2ccc(O)c(c2)-c2c(O)cc(O)cc21 was 0.12

---

Recorded measurements of MIC, one per entry
System: Enterococcus faecalis
test description: In vitro minimum inhibitory concentration against Streptococcus faecalis ATCC 7080
Assay type: functional

molecule	MIC
CCNCCNC(=O)[C@H]1NC(=O)[C@H]2NC(=O)[C@H](NC(=O)[C@@H]3NC(=O)[C@H]4NC(=O)[C@@H](Cc5ccc(c(Cl)c5)Oc5cc3cc(c5O[C@@H]3O[C@@H](CO)[C@@H](O)[C@H](O)[C@@H]3NC(=O)CCCCCCC(C)C)Oc3ccc(cc3Cl)[C@H]2O[C@@H]2O[C@@H](CO)[C@@H](O)[C@H](O)[C@@H]2NC(C)=O)NC(=O)[C@H](N)c2ccc(O)c(c2)Oc2cc(O)cc4c2)c2ccc(O)c(c2)-c2c(O[C@H]3O[C@H](CO)[C@@H](O)[C@@H](O)[C@@H]3O)cc(O)cc21	0.12 mg/L

Attention now turns to another entry.
Sample CCN1CCCC1CNC(=O)[C@H]1NC(=O)[C@H]2NC(=O)[C@H](NC(=O)[C@@H]3NC(=O)[C@H]4NC(=O)[C@@H](Cc5ccc(c(Cl)c5)Oc5cc3cc(c5O[C@@H]3O[C@@H](CO)[C@@H](O)[C@H](O)[C@@H]3NC(=O)CCCCCCC(C)C)Oc3ccc(cc3Cl)[C@H]2O[C@@H]2O[C@@H](CO)[C@@H](O)[C@H](O)[C@@H]2NC(C)=O)NC(=O)[C@H](N)c2ccc(O)c(c2)Oc2cc(O)cc4c2)c2ccc(O)c(c2)-c2c(O[C@H]3O[C@H](CO)[C@@H](O)[C@@H](O)[C@@H]3O)cc(O)cc21 (some centres not stated) , system: Enterococcus faecalis. Its MIC is 0.12 mg/L

---

Tested on: Streptococcus pyogenes
test description: Subcutaneously administration into mice infected with Streptococcus pyogenes C 203
Type: functional
measurement context: sc
property label: log10 ED50 (log10 of the value in mg/kg)
Quick note: numbers are log10 of ED50, with mg/kg as the unit.

For orientation, consider the following solved cases.
compound	log10 ED50
CNCCNC(=O)[C@H]1NC(=O)[C@H]2NC(=O)[C@H](NC(=O)[C@@H]3NC(=O)[C@H]4NC(=O)[C@@H](Cc5ccc(c(Cl)c5)Oc5cc3cc(c5O[C@@H]3O[C@@H](CO)[C@@H](O)[C@H](O)[C@@H]3NC(=O)CCCCCCC(C)C)Oc3ccc(cc3Cl)[C@H]2O[C@@H]2O[C@@H](CO)[C@@H](O)[C@H](O)[C@@H]2NC(C)=O)NC(=O)[C@H](N)c2ccc(O)c(c2)Oc2cc(O)cc4c2)c2ccc(O)c(c2)-c2c(O[C@H]3O[C@H](CO)[C@@H](O)[C@@H](O)[C@@H]3O)cc(O)cc21	-1.10
CC(=O)N[C@@H]1[C@H](O[C@@H]2c3ccc(c(Cl)c3)Oc3cc4cc(c3O[C@@H]3O[C@@H](CO)[C@@H](O)[C@H](O)[C@@H]3NC(=O)CCCCCCC(C)C)Oc3ccc(cc3Cl)C[C@H]3NC(=O)[C@H](N)c5ccc(O)c(c5)Oc5cc(O)cc(c5)[C@H](NC3=O)C(=O)N[C@H]4C(=O)N[C@H]3C(=O)N[C@@H]2C(=O)N[C@H](C(=O)N2CCSCC2)c2cc(O)cc(O[C@H]4O[C@H](CO)[C@@H](O)[C@@H](O)[C@@H]4O)c2-c2cc3ccc2O)O[C@@H](CO)[C@@H](O)[C@@H]1O	-1.10
CC(=O)NC1C(O[C@@H]2c3ccc(c(Cl)c3)Oc3cc4cc(c3O)Oc3ccc(cc3Cl)C[C@H]3NC(=O)[C@H](N)c5ccc(O)c(c5)Oc5cc(O)cc(c5)[C@H](NC3=O)C(=O)N[C@H]4C(=O)N[C@H]3C(=O)N[C@@H]2C(=O)N[C@H](C(=O)NCCCN(C)C)c2cc(O)cc(O)c2-c2cc3ccc2O)OC(CO)C(O)C1O (some centres undefined)	0.34
CCCCN(CCCC)CCCNC(=O)[C@H]1NC(=O)[C@H]2NC(=O)[C@H](NC(=O)[C@@H]3NC(=O)[C@H]4NC(=O)[C@@H](Cc5ccc(c(Cl)c5)Oc5cc3cc(c5O)Oc3ccc(cc3Cl)[C@H]2O[C@@H]2O[C@@H](CO)[C@@H](O)[C@H](O)[C@@H]2NC(C)=O)NC(=O)[C@H](N)c2ccc(O)c(c2)Oc2cc(O)cc4c2)c2ccc(O)c(c2)-c2c(O[C@H]3O[C@H](CO)[C@@H](O)[C@@H](O)[C@@H]3O)cc(O)cc21	-0.74

Lab note: measured log10 ED50 of CC(=O)N[C@@H]1[C@H](O[C@@H]2c3ccc(c(Cl)c3)Oc3cc4cc(c3O[C@@H]3O[C@@H](CO)[C@@H](O)[C@H](O)[C@@H]3NC(=O)CCCCCCC(C)C)Oc3ccc(cc3Cl)C[C@H]3NC(=O)[C@H](N)c5ccc(O)c(c5)Oc5cc(O)cc(c5)[C@H](NC3=O)C(=O)N[C@H]4C(=O)N[C@H]3C(=O)N[C@@H]2C(=O)N[C@H](C(=O)NCCCN(C)C)c2cc(O)cc(O[C@H]4O[C@H](CO)[C@@H](O)[C@@H](O)[C@@H]4O)c2-c2cc3ccc2O)O[C@@H](CO)[C@@H](O)[C@@H]1O was -1.30

Lab note: measured log10 ED50 of CCN(CC)CCCNC(=O)[C@H]1NC(=O)[C@H]2NC(=O)[C@H](NC(=O)[C@@H]3NC(=O)[C@H]4NC(=O)[C@@H](Cc5ccc(c(Cl)c5)Oc5cc3cc(c5O)Oc3ccc(cc3Cl)[C@H]2O[C@@H]2O[C@@H](CO)[C@@H](O)[C@H](O)[C@@H]2NC(C)=O)NC(=O)[C@H](N)c2ccc(O)c(c2)Oc2cc(O)cc4c2)c2ccc(O)c(c2)-c2c(O[C@H]3O[C@H](CO)[C@@H](O)[C@@H](O)[C@@H]3O)cc(O)cc21 was -0.52

Lab note: measured log10 ED50 of NCCCCNC(=O)[C@H]1NC(=O)[C@H]2NC(=O)[C@H](NC(=O)[C@@H]3NC(=O)[C@H]4NC(=O)[C@@H](Cc5ccc(c(Cl)c5)Oc5cc3cc(c5O)Oc3ccc(cc3Cl)[C@H]2O)NC(=O)[C@H](N)c2ccc(O)c(c2)Oc2cc(O)cc4c2)c2ccc(O)c(c2)-c2c(O)cc(O)cc21 was -0.27

Lab note: measured log10 ED50 of CNCCCNC(=O)[C@H]1NC(=O)[C@H]2NC(=O)[C@H](NC(=O)[C@@H]3NC(=O)[C@H]4NC(=O)[C@@H](Cc5ccc(c(Cl)c5)Oc5cc3cc(c5O[C@@H]3O[C@@H](CO)[C@@H](O)[C@H](O)[C@@H]3NC(=O)CCCCCCC(C)C)Oc3ccc(cc3Cl)[C@H]2O[C@@H]2O[C@@H](CO)[C@@H](O)[C@H](O)[C@@H]2NC(C)=O)NC(=O)[C@H](N)c2ccc(O)c(c2)Oc2cc(O)cc4c2)c2ccc(O)c(c2)-c2c(O[C@H]3O[C@H](CO)[C@@H](O)[C@@H](O)[C@@H]3O)cc(O)cc21 was -0.85

Lab note: measured log10 ED50 of CN(C)CCCCNC(=O)[C@H]1NC(=O)[C@H]2NC(=O)[C@H](NC(=O)[C@@H]3NC(=O)[C@H]4NC(=O)[C@@H](Cc5ccc(c(Cl)c5)Oc5cc3cc(c5O)Oc3ccc(cc3Cl)[C@H]2O)NC(=O)[C@H](N)c2ccc(O)c(c2)Oc2cc(O)cc4c2)c2ccc(O)c(c2)-c2c(O)cc(O)cc21 was -0.27
